SUBJECT_OF_TEST: rat adrenergic α1B receptor (Rattus norvegicus)
Construct: rat adrenergic α1B receptor obtained from Wistar Rat liver; from tissue; host or cells: Wistar rat liver
Sequence (P15823 1-515): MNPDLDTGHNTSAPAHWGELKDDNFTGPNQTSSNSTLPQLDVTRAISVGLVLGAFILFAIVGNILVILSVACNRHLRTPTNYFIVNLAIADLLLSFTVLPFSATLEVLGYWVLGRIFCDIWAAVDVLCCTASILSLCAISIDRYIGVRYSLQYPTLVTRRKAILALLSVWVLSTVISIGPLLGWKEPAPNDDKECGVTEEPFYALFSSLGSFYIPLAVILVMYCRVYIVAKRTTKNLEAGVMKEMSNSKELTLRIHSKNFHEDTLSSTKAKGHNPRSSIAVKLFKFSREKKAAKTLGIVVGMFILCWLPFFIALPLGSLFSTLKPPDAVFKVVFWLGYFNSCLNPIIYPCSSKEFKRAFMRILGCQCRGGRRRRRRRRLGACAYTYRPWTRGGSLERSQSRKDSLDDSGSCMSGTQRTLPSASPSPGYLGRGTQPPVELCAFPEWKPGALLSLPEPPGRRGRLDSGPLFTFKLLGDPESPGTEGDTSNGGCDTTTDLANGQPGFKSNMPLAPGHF
EXPERIMENTAL_PROTOCOL: Radioligand binding, adrenergic α1B ([3H]Prazosin)
Parameters: species or system Wistar Rat
PARTICULARS: compound at 0.1 μM, repeat datapoints each shown
Recorded Percentage inhibition of ligand binding, Adrenergic α1B (0.1 μM) by entry
RECORDED_ENDPOINT: Percentage inhibition of ligand binding, Adrenergic α1B (0.1 μM) (%)

Cc1ccc2c(c1)c1c(n2CC(C)(O)c2cccnc2)CCNC1 (single isomer, unassigned) [24a] | 8
Cc1ccc2c(c1)c1c(n2CC(O)c2cn[nH]c2)CCN(C)C1 (stereo not shown) [II-106b] | 31
CCC(O)(Cn1c2c(c3cc(C)ccc31)CN(C)CC2)c1ccncc1 (stereo not shown) [35a] | 9
Cc1ccc2c(c1)c1c(n2CC(C)(O)c2cccnc2)CCNC1 (single isomer, unassigned) [24b] | 8

====

Recorded Percentage inhibition of ligand binding, Adrenergic α1B (0.1 μM) by entry
SUBJECT_OF_TEST: rat adrenergic α1B receptor (Rattus norvegicus)
Construct: rat adrenergic α1B receptor obtained from Wistar Rat liver; from tissue; host or cells: Wistar rat liver
EXPERIMENTAL_PROTOCOL: Radioligand binding, adrenergic α1B ([3H]Prazosin)
Design: species or system Wistar Rat
PARTICULARS: compound at 0.1 μM, repeat datapoints each shown, 0.1 µM
RECORDED_ENDPOINT: Percentage inhibition of ligand binding, Adrenergic α1B (0.1 μM) (%)

CN1CCc2c(c3ccc(C(F)(F)F)cc3n2CC(O)c2cccnc2)C1 (single isomer, unassigned) [40b] | −2
Cc1ccc2c(c1)c1c(n2CC(OC(=O)C(N)C(C)C)c2ccncc2)CCN(C)C1 (single isomer, unassigned) [25a] | 4
Cc1ccc2c(c1)c1c(n2CC(O)c2ccncc2)CCN2CCCCC12 (single isomer, unassigned) [47a] | 58
CN1CCc2c(c3cc(Cl)ccc3n2CC(C)(O)c2cccnc2)C1 (stereo not shown) [31b] | 3
OC(Cn1c2c(c3cccnc31)CN1CCCC1C2)c1ccncc1 (single isomer, unassigned) [37c] | 2
Cc1ccc2c(c1)c1c(n2CC(O)c2ccc(F)cc2)CCN(C)C1 (stereo not shown) [30a] | 57
Cc1ccc2c(c1)c1c(n2CC(O)c2ccncc2)CCN2CCCCC12 (single isomer, unassigned) [47c] | 6
Cc1ccc2c(c1)c1c(n2CC(O)c2ccncc2)CC2CCCN2C1 (single isomer, unassigned) [76d] | 51
Cc1ccc2c(c1)c1c(n2CC(O)c2cc[n+]([O-])cc2)CCN(C)C1 (single isomer, unassigned) [69b] | 8
Cc1ccc2c(c1)c1c(n2CC(O)c2ccncc2)CC2CCCCN2C1 (racemic) [75b] | 16
CN1CCc2c(c3cc(C(F)(F)F)ccc3n2CC(O)c2cccnc2)C1 (single isomer, unassigned) [59b] | 7
CCC1c2c(c3cc(C)ccc3n2CC(O)c2ccncc2)C2CCN1C2 (single isomer, unassigned) [36b] | 11
Cc1ccc2c(c1)c1c(n2CC(O)c2ccncc2)CC2CCCN2C1 (single isomer, unassigned) [76b] | 71
Cc1ccc2c(c1)c1c(n2CC(O)c2ccncc2)CC2CCCCN2C1 (racemic) [75a] | 61
CN1CCc2c(c3ccc(C(F)(F)F)cc3n2CC(O)c2cccnc2)C1 (single isomer, unassigned) [40a] | 2
CN1CCc2c(n(CC(C)(O)c3cccnc3)c3ccc(Cl)cc23)C1 (single isomer, unassigned) [28a] | 41
